- assay method text: in vivo
- measurement setup: female, New Zealand white (INRA 1777 line), rabbit, in vivo, iv
experimental endpoint: log10 half-life (log10 of the value in h)
Give log10 of half-life, with half-life taken in h.

Quick one: give measured log10 half-life for Clc1c(Cl)c(Cl)c(Cl)c(Cl)c1Cl [HCB, hexachlorobenzene]
2.62

Quick one: give measured log10 half-life for Cl[C@H]1[C@H](Cl)[C@@H](Cl)[C@H](Cl)[C@@H](Cl)[C@@H]1Cl [β-HCH, β-hexachlorocyclohexane]
2.52

Quick one: give measured log10 half-life for ClC(Cl)=C(c1ccc(Cl)cc1)c1ccc(Cl)cc1 [pp′DDE]
2.38

Quick one: give measured log10 half-life for Brc1ccc(Oc2ccc(Br)cc2Br)c(Br)c1 [BDE-47, 2,2′,4,4′-tetrabromodiphenyl ether]
2.21

Quick one: give measured log10 half-life for O=C(O)C(F)(F)C(F)(F)C(F)(F)C(F)(F)C(F)(F)C(F)(F)C(F)(F)F [PFOA, perfluorooctanoic acid]
1.50
